These measurements were taken from patent US11230541B2.

- target-desc: NMDA receptor composed of four subunits including 2 sets of heterodimers of NR1 and NR2B (Homo sapiens, UniProt Q13224)
- Construct: host or cells: HEK293 (tetracycline-induced expression)
- Sequence (Q13224 27-1484, other chains not shown): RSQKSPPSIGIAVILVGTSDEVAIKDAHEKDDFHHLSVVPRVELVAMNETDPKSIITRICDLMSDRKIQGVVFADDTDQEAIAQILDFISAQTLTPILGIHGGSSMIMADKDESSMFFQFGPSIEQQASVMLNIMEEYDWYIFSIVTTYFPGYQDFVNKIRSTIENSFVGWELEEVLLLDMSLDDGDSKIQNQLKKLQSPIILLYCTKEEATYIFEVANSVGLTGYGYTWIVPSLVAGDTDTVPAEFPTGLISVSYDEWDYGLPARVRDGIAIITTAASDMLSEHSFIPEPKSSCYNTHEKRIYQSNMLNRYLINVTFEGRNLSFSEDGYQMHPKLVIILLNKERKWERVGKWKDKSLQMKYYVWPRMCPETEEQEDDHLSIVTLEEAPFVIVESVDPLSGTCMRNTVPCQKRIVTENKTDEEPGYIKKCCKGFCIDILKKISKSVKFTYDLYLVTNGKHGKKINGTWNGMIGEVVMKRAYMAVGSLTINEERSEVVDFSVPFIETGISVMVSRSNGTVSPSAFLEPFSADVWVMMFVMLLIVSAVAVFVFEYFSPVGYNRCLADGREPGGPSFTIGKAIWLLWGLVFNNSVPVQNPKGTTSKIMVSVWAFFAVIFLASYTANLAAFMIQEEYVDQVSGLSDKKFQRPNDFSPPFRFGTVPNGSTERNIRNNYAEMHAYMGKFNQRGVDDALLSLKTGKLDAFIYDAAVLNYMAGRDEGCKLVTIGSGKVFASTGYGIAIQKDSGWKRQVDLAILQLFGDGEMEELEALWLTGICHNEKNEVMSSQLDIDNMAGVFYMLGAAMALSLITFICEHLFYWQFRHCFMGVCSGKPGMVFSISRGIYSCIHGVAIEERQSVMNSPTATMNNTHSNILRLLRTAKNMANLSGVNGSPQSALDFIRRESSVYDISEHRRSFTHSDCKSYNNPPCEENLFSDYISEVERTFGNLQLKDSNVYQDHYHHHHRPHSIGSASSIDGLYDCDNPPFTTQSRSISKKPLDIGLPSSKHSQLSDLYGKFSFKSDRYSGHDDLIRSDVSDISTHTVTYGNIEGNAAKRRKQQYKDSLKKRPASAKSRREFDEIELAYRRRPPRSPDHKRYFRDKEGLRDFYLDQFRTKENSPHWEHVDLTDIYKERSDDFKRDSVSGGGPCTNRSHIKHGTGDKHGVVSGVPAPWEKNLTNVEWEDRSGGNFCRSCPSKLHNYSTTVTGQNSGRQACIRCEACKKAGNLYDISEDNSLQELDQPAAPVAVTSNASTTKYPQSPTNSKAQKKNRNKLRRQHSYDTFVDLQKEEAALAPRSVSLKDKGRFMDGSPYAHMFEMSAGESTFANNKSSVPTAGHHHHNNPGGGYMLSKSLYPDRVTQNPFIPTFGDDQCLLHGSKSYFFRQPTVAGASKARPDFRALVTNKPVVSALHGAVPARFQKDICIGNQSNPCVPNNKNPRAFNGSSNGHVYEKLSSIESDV
- procedure-summary: NR2B Ca2+ influx assay (FLIPR, Fluo-4) in HEK293 cells expressing human GRIN1 and GRIN2B
- Format: cell-based
- applied-conditions: HEK293, 10 μM final compound concentration, glutamic acid/glycine-induced Ca2+ influx, read-out: inhibitory rate (10 μM compound concentration)
Kindly supply the reported inhibition at 10 µM values for the records listed here.
Numbers only, in %.

Some solved cases for reference:
COc1ccc2ncn(C)c2c1CNC(=O)c1ccc(OC(F)F)nc1 [Example 276]; 88
COc1ncc(C(=O)NCc2c(C)ccc3ncn(C)c23)cc1F [Example 19]; 83
CCc1cc(C(=O)NCc2c(OC)ccc3ncn(C)c23)cs1 [Example 29]; 91
Cc1ccc(C(=O)NCc2c(C3CC3)ccc3[nH]ncc23)s1 [Example 64]; 91
Cc1ccc2ncn(C)c2c1CNC(=O)c1ccc(OC(F)(F)F)cc1 [Example 152]; 91

Your task in this section: give inhibition at 10 µM for each listed record.
1. COc1ccc2ncn(C)c2c1CNC(=O)c1ccc(C)c(F)c1 [Example 14]
2. COc1ccc2ncn(C)c2c1CNC(=O)Nc1ccc(OC(F)F)cc1 [Example 221]
3. COc1ccc2ncn(C)c2c1CNC(=O)Nc1cccc(C)c1 [Example 215]
4. COc1c(F)cc(C(=O)NCc2cccc3[nH]nnc23)cc1F [Example 211]

Response:
[92, 88, 53, 95]
